Here the recorded IC50 is given for each entry.
systemName: PI3K delta (Homo sapiens (Human))
Sequence (O00329 other isoform, or with tags, fused parts or gaps linker GGGGGG): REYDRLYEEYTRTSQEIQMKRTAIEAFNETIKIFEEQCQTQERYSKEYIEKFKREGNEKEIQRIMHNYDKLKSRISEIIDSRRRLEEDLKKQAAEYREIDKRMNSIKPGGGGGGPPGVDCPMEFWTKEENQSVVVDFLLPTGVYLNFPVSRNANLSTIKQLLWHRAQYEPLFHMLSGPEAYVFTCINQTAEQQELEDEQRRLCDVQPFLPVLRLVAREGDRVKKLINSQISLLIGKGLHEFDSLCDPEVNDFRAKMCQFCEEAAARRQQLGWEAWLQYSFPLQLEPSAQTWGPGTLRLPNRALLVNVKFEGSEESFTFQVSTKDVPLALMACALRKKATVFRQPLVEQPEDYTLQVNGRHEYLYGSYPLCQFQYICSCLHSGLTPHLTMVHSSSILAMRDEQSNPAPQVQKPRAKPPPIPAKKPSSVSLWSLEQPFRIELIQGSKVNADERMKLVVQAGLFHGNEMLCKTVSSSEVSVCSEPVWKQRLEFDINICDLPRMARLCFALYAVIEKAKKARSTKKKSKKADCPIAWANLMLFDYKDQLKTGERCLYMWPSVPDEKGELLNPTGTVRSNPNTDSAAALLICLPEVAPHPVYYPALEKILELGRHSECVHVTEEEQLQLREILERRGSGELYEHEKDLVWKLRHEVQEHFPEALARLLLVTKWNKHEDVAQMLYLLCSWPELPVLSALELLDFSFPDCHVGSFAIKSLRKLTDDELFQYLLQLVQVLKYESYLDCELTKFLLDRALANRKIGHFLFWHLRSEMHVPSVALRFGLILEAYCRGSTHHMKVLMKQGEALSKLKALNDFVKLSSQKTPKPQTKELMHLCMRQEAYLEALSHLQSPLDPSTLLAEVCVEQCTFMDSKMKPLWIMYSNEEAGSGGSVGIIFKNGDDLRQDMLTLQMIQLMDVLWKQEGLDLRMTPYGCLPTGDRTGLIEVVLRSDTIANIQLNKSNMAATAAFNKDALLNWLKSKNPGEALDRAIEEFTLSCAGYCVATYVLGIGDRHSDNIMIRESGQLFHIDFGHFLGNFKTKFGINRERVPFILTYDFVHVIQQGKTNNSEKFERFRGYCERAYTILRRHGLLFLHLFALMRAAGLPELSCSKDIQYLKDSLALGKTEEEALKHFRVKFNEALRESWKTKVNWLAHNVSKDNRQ
assayDetails: Enzymatic PI3K delta isoform inhibition (lipid kinase activity, Kinase-Glo luminescence)
conditionSummary: Enzymatic assay
reportedEndpoint: IC50 (nM)

compound="COc1ncc(N2CCOc3cnc(OC4CCN(C(=O)C5CCS(=O)(=O)CC5)C4)cc32)cc1C (centres unmarked) [Example F12]" reportedendpoint=IC50 rel=< endpointresult=3
compound="COc1ncc(N2CCOc3ccc(O[C@H]4CCN(C(=O)[C@H]5CCN(C(C)=O)C5)C4)cc32)cc1C#N [J]" reportedendpoint=IC50 rel== endpointresult=65
compound="Cc1cc(N2CCOc3cnc(O[C@H]4CCN(C(=O)C5CCOCC5)C4)cc32)cnc1OC(F)F [Example E9]" reportedendpoint=IC50 rel== endpointresult=7
compound="COc1ncc(N2CCOc3ccc(O[C@H]4CCN(C(=O)c5ccncc5)C4)cc32)cc1C#N [Example C17]" reportedendpoint=IC50 rel== endpointresult=8
compound="CCC(=O)N1C[C@H](Oc2ccc3c(c2)N(c2cnc(OC)c(C#N)c2)CCO3)CO1 [Example D25]" reportedendpoint=IC50 rel== endpointresult=2690
compound="CCC(=O)N1CC[C@H](Oc2ccc3c(c2)N(c2cnc(OC)c(Cl)c2)CCO3)C1 [Example A12]" reportedendpoint=IC50 rel== endpointresult=3
compound="COc1ncc(N2CCOc3ccc(O[C@H]4CCN(C(=O)Cc5cn(C)cn5)C4)cc32)cc1C#N [Example D37]" reportedendpoint=IC50 rel== endpointresult=127
compound="Cc1cc(N2CCOc3ccc(O[C@H]4CCN(C(=O)C5CCS(=O)(=O)CC5)C4)cc32)cnc1OC(F)F [Example B73]" reportedendpoint=IC50 rel== endpointresult=30
